# IC50 per entry
TEST SYSTEM: FAAH (Homo sapiens)
TEST METHOD NOTES: Assay Method 1: FAAH assay, 3H-anandamide hydrolysis in cell homogenate

Look over these answered cases.
>  <SMILES DATA>
O=C(Nc1noc2ncccc12)N1CCN(Cc2cccc(Oc3ccccc3)c2)CC1

>  <ASSAY ENDPOINT>
IC50

>  <READING>
> 10 µM

$$$$
>  <SMILES DATA>
O=C(Nc1cccc2cn[nH]c12)N1CCN(Cc2ccc3c(c2)OC(F)(F)O3)CC1

>  <ASSAY ENDPOINT>
IC50

>  <READING>
> 10 µM

$$$$

Now look at this entry.
Recorded IC50 for O=C(Nc1noc2ncccc12)N1CCN(Cc2cccc(Oc3ccc(S(=O)(=O)C(F)(F)F)cc3)c2)CC1 , please? > 10 µM

###

TEST SYSTEM: UniProt O00519
Sequence (O00519 1-579): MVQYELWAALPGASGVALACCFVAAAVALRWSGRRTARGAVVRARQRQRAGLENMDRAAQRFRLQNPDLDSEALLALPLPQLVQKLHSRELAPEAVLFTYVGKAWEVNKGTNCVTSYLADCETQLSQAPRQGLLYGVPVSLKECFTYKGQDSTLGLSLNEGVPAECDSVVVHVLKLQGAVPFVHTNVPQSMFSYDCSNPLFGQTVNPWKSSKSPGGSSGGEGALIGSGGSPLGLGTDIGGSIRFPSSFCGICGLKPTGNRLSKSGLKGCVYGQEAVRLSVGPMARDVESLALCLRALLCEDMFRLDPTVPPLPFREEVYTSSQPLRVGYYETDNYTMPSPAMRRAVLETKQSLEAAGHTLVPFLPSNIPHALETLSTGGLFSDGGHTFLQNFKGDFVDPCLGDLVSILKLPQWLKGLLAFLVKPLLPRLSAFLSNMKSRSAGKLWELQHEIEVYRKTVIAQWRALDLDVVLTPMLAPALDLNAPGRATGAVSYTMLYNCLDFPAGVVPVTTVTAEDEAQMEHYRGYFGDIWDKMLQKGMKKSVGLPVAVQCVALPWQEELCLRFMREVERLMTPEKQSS
TEST METHOD NOTES: Assay Method 1: FAAH assay, 3H-anandamide hydrolysis in cell homogenate
ASSAY ENDPOINT: IC50 (nM)

I = O=C(Nc1noc2ncccc12)N1CCN(Cc2cccc(Oc3ccc4ncccc4c3)c2)CC1
II = CC(C)n1ncc2cc(NC(=O)N3CCN(Cc4cccc(Oc5ccc(Cl)cc5)c4)CC3)cnc21
III = O=C(Nc1noc2ncccc12)N1CCN(Cc2cccc(Oc3ccccc3Cl)c2)CC1
IV = O=C(Nc1noc2ncccc12)N1CCN(Cc2ccc3ccccc3n2)CC1
Rank the listed molecules by IC50, largest first. Arrange the labels as the request states and list them. I, IV, III, II

P = O=C(Nc1noc2cccnc12)N1CCN(Cc2ccc3c(c2)OC(F)(F)O3)CC1
Q = O=C(Nc1cnc2cccnn12)N1CCN(Cc2ccc3c(c2)OC(F)(F)O3)CC1
R = O=C(Nc1cnc2cccnn12)N1CCN(Cc2ccc(Cl)c(Cl)c2)CC1
Sort these molecules on IC50 so the largest reading comes first. Dear reader, please state the labels in the requested order. P, Q, R

###

TEST SYSTEM: UniProt:P97612
Sequence (P97612 whole entry): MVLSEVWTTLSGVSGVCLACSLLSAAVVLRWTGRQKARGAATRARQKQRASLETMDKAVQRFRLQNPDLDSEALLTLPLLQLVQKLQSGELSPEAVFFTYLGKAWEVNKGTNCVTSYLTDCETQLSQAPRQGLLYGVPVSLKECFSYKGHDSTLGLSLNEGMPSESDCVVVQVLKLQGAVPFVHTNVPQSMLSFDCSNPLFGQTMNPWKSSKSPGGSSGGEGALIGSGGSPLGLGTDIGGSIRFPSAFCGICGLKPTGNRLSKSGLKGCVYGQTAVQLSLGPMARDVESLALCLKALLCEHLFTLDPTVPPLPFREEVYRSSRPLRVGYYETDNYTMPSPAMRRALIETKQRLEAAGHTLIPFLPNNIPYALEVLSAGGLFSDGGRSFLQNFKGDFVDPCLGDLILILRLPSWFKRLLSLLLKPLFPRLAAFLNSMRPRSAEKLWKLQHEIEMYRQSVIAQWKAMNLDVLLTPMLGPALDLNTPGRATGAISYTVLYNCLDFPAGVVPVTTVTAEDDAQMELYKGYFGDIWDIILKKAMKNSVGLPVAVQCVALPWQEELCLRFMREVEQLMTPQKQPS
TEST METHOD NOTES: Assay Method 2: FAAH assay, 3H-anandamide hydrolysis in cell homogenate
ASSAY SETUP: average of results obtained, > value = solubility limit or highest concentration tested
pIC50: −log10 of the molar value.
ASSAY ENDPOINT: pIC50

Here is how some compounds turned out for pIC50.
>  <COMPOUND>
O=C(Nc1ccc2ncoc2c1)N1CCN(Cc2ccc3c(c2)OC(F)(F)O3)CC1 [Example 47]

>  <TEST SYSTEM>
UniProt:P97612

>  <pIC50>
5.52

$$$$
>  <COMPOUND>
O=C(Nc1noc2ccncc12)N1CCN(Cc2cccc(Oc3ccc(Cl)cc3)c2)CC1 [Example 40]

>  <TEST SYSTEM>
UniProt:P97612

>  <pIC50>
7.40

$$$$
>  <COMPOUND>
N#Cc1cccnc1Oc1cccc(CN2CCN(C(=O)Nc3cnc4[nH]ccc4c3)CC2)c1 [Example 77]

>  <TEST SYSTEM>
UniProt:P97612

>  <pIC50>
5.70

$$$$

1 = Cc1nn(C)c2ncc(NC(=O)N3CCN(Cc4cccc(Oc5ccc(Cl)cc5)c4)CC3)cc12 [Example 64]
2 = N#Cc1ccnc(Oc2cccc(CN3CCN(C(=O)Nc4cnc5[nH]ccc5c4)CC3)c2)c1 [Example 78]
Select the item with the higher value of pIC50 from the options 1 and 2 listed. Mark your selection by writing its label. 1
(1: 7.02, 2: 5.30)

This collection of values is drawn from patent US8877769B2.
